Listing: growth inhibition of selected compounds
# assay comment: NCI Yeast Anticancer Drug Screen. Data for the bub3 strain (AID 167)
# test context: S. cerevisiae bub3 mutant strain, at 50.0 µM, stronger effect = higher value
This is part of a sample that, as a whole, favours compounds with a hit. Of some 79,000 tested, about 15% had one in any assay.
outcome measure: growth inhibition (%)

{"columns": ["compound", "outcome measure", "value observed"],
 "data": [
  ["COc1ccc(C(=O)C[C@H]2CCC[C@@H](CC(=O)c3ccc(OC)cc3)N2C)cc1", "growth inhibition", 0.25],
  ["CS/N=C(\\c1ccccc1)N(C)C", "growth inhibition", -1.6],
  ["CCCCCC(=O)Nc1cc(S(=O)(=O)O)cc2cc(S(=O)(=O)O)cc(O)c12", "growth inhibition", -9.85],
  ["CN(CC(=O)O)Cc1oc(CO)cc(=O)c1O", "growth inhibition", -40],
  ["Nc1c2ccccc2nc2c(C(=O)Nc3ccc(S(N)(=O)=O)cc3)cccc12", "growth inhibition", -2.45],
  ["COc1ccc(OC)c(NC(=O)c2ccccc2Cl)c1", "growth inhibition", 48.2],
  ["CCOC(=O)N1N=C(c2ccccc2)OC2(N3CCCC3)CCC(C(C)(C)C)CC12 (configuration not stated)", "growth inhibition", -4.25],
  ["CCC(=O)N(C)[C@@H]1Oc2ccc(O)cc2[C@]1(C)c1cc(O)ccc1O", "growth inhibition", 6.7],
  ["N#Cc1c2c(c(N3CCCCC3)n3c1nc1ccccc13)CCC2", "growth inhibition", 19.9],
  ["CCN(CCC#N)c1cccc(C)c1", "growth inhibition", -16.8],
  ["C#CC(C)(O)CC(C)C (configuration not stated)", "growth inhibition", 6.65],
  ["Cc1ccc(S(=O)(=O)C2c3nc4ccccc4cc3-c3nc4ccccc4nc32)cc1 (configuration not stated)", "growth inhibition", 7.95]
]}

Where do the numbers come from? From PubChem BioAssay (NCI).
